Measured values drawn from patent US9434711B2 for this set.

# maps each entry to its inhibition at 0.2 µM
Target: canine TRPM8 (Canis lupus familiaris, UniProt Q1A7N1)
Sequence (Q1A7N1 1-1104): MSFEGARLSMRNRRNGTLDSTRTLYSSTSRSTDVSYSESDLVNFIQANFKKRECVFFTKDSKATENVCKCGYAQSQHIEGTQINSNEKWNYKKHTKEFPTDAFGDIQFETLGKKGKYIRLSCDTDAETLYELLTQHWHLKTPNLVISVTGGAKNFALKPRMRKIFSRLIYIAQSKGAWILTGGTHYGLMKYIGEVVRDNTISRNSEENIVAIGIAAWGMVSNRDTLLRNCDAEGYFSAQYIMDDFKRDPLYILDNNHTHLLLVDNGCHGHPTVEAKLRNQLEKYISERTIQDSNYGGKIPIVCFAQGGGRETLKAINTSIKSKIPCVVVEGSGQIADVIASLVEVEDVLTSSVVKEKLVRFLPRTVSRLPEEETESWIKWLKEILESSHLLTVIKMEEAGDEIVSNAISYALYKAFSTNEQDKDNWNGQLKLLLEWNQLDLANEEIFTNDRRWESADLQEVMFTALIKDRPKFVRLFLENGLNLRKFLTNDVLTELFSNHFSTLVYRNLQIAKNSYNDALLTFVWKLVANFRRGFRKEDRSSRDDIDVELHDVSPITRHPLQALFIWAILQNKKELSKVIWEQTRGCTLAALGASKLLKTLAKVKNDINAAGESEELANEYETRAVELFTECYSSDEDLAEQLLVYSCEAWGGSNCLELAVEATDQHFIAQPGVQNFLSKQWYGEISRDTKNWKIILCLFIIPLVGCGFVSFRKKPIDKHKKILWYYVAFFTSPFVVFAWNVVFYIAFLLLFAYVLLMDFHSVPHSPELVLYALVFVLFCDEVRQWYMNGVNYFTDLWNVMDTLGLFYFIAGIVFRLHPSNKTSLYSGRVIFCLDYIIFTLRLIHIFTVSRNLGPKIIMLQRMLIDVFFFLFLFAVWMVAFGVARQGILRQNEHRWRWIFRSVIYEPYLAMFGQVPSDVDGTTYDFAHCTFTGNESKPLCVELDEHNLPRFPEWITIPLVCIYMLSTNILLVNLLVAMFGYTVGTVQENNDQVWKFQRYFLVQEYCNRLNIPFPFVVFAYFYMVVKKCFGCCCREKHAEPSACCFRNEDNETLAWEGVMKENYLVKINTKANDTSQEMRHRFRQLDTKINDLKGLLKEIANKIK
Assay: In Vitro Canine TRPM8 Functional Assay (Ca2+ fluorescence, icilin activation)
Format: cell-based
Conditions: compound at 0.2 μM; canine TRPM8, icilin activation; read-out: % Inh @ 0.2
measure name: inhibition at 0.2 µM (%)

                                    molecule                                    system          measure_name  experimental_result
 0  Cc1c(N(Cc2ccccc2)S(=O)(=O)c2ccc(C(=O)O)cc2)sc2ccccc12  canine TRPM8 (Canis lupus familiaris, UniProt Q1A7N1)  inhibition at 0.2 µM                  100
 1    CCS(=O)(=O)N(CCC(F)(F)F)c1sc2ccccc2c1C  canine TRPM8 (Canis lupus familiaris, UniProt Q1A7N1)  inhibition at 0.2 µM                   93
 2  Cc1c(N(CCC(F)(F)F)S(=O)(=O)c2ccc(-c3noc(=O)[nH]3)cc2)sc2ccccc12  canine TRPM8 (Canis lupus familiaris, UniProt Q1A7N1)  inhibition at 0.2 µM                  101
 3  CS(=O)(=O)Nc1ccc(S(=O)(=O)N(CCC2CC2)c2sc3ccccc3c2Cl)cc1  canine TRPM8 (Canis lupus familiaris, UniProt Q1A7N1)  inhibition at 0.2 µM                  101
 4  CCS(=O)(=O)N(Cc1ccc(F)c(C(F)(F)F)c1)c1sc2ccccc2c1C(C)O (stereo not drawn)  canine TRPM8 (Canis lupus familiaris, UniProt Q1A7N1)  inhibition at 0.2 µM                   98
 5  O=S(=O)(c1cccnc1)N(CCCC(F)(F)F)c1sc2ccccc2c1Br  canine TRPM8 (Canis lupus familiaris, UniProt Q1A7N1)  inhibition at 0.2 µM                   96
 6  O=S(=O)(c1ccc(-c2nnn[nH]2)cc1)N(CC1CC1)c1sc2ccccc2c1Br  canine TRPM8 (Canis lupus familiaris, UniProt Q1A7N1)  inhibition at 0.2 µM                  101
 7  Cc1c(N(CCC(F)(F)F)S(=O)(=O)CC(F)(F)F)sc2ccccc12  canine TRPM8 (Canis lupus familiaris, UniProt Q1A7N1)  inhibition at 0.2 µM                  100
 8  Cc1c(N(CCC(F)(F)F)S(=O)(=O)c2ccccc2)sc2ccccc12  canine TRPM8 (Canis lupus familiaris, UniProt Q1A7N1)  inhibition at 0.2 µM                  101
 9  COC(=O)c1ccc(S(=O)(=O)N(Cc2ccc(F)c(C(F)(F)F)c2)c2sc3ccccc3c2C)cc1  canine TRPM8 (Canis lupus familiaris, UniProt Q1A7N1)  inhibition at 0.2 µM                   83
10  COc1ccc(S(=O)(=O)N(Cc2ccc(F)c(C(F)(F)F)c2)c2sc3ccccc3c2C)cn1  canine TRPM8 (Canis lupus familiaris, UniProt Q1A7N1)  inhibition at 0.2 µM                   93
11  COC(=O)[C@@H](C)CN(c1sc2ccccc2c1Br)S(=O)(=O)c1ccccc1  canine TRPM8 (Canis lupus familiaris, UniProt Q1A7N1)  inhibition at 0.2 µM                  100
12  O=C(O)c1ccc(S(=O)(=O)N(CC2CCC2)c2sc3ccccc3c2Br)cc1  canine TRPM8 (Canis lupus familiaris, UniProt Q1A7N1)  inhibition at 0.2 µM                   92
13  O=S(=O)(c1ccccc1)N(CC1CC1)c1sc2ccccc2c1Br  canine TRPM8 (Canis lupus familiaris, UniProt Q1A7N1)  inhibition at 0.2 µM                   89
14  O=c1[nH]c(-c2ccc(S(=O)(=O)N(CCC3CC3)c3cc4ccccc4s3)cc2)no1  canine TRPM8 (Canis lupus familiaris, UniProt Q1A7N1)  inhibition at 0.2 µM                   97
15  COc1cccc(S(=O)(=O)N(Cc2ccc(F)c(C(F)(F)F)c2)c2sc3ccccc3c2Br)c1  canine TRPM8 (Canis lupus familiaris, UniProt Q1A7N1)  inhibition at 0.2 µM                  102
16  O=C(O)c1cccc(S(=O)(=O)N(Cc2ccc(F)c(C(F)(F)F)c2)c2cc3ccccc3s2)c1  canine TRPM8 (Canis lupus familiaris, UniProt Q1A7N1)  inhibition at 0.2 µM                   81
17  Cc1c(N(CCC2CC2)S(=O)(=O)c2ccc(N3CCOCC3)cc2)sc2ccccc12  canine TRPM8 (Canis lupus familiaris, UniProt Q1A7N1)  inhibition at 0.2 µM                  101
